The measurements presented in this section are drawn from PubChem BioAssay (NCI).

# System: 786-0 renal
# run_description: NCI tumour cell line growth inhibition, 48 h
Would you kindly list GI50 for each of these molecules?

Request: Give reported GI50 value for Cn1cc(-c2cc3nc(-c4cn(C)c5ncc(Br)cc45)cc(N)n3n2)c2cc(Cl)ccc21
Response: 1760 nM

Request: Give reported GI50 value for Cc1ccc2c(c1)nc(-c1ccccc1)n2CC(=O)N=Nc1c(O)[nH]c2ccc(Br)cc12
Response: 1730 nM

Request: Give reported GI50 value for O=C(N/N=C/c1ccc(B(O)O)s1)c1[nH]c2ccc(Br)cc2c1-c1ccccc1
Response: 411 nM

Request: Give reported GI50 value for N#C/C(=C\c1ccc(N(c2ccccc2)c2ccccc2)cc1)C(N)=O
Response: 18000 nM
